Molecular target: fusion protein Tel/PDGF-R (PDGF-Rβ kinase domain) in HEK cells (Homo sapiens, UniProt P09619)
Construct: the transmembrane and intracellular part of the PDGF-Rβ receptor; N-terminal part of the Tel transcription factor (ETV6); expressed in transfected cells; host or cells: HEK cells (transient transfection); the other entry of the earlier key: ETV6 (P41212, Transcription factor ETV6)
Sequence (P09619 with tags, fused parts or gaps): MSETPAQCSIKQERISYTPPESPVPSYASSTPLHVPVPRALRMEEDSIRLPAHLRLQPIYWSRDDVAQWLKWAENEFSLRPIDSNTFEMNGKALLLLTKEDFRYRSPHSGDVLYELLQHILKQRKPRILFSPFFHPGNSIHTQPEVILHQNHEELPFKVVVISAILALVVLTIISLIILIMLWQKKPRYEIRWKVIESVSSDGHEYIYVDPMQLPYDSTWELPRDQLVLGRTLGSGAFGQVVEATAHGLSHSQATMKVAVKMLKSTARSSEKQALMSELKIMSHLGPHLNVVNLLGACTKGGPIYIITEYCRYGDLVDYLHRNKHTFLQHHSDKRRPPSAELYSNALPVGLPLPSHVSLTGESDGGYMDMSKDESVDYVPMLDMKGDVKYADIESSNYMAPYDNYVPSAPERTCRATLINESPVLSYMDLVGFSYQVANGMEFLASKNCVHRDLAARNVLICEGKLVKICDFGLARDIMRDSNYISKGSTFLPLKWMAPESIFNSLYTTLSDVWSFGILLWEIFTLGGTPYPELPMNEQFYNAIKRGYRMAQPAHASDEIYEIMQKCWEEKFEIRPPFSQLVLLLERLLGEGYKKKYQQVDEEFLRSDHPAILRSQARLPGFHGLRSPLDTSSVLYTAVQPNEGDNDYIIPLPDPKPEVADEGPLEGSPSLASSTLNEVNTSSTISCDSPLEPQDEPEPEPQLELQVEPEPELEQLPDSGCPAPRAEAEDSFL
Experiment: Ex vivo activity: plasma of orally treated mice tested on PDGF-R autophosphorylation in HEK Tel/PDGF-R cells (ELISA)
Parameters: species or system female Balb/c mice
Conditions: HEK293, mouse, po, 30 mg/kg po, plasma collected at 1 h; read-out: % inhibition of autophosphorylation of PDGFR tyrosine kinase in HEK cells
Use 70% as the dividing line for inhibition at 30 mg/kg, with the line itself on the Condition met side and lower values as Condition not met.

[
  {
    "COMPOUND": "CCn1c(N)c(C(=O)NC)c(=O)c2ccc(-c3ccc(CC(=O)NCC4COCCN4C4CC4)cc3)nc21 (stereo not drawn) [compound 33]",
    "DISCRETE LABEL": "Condition met"
  },
  {
    "COMPOUND": "CCN1C[C@H](F)C[C@H]1CNC(=O)Cc1ccc(-c2ccc3c(=O)c(C(=O)NC)c(N)n(CC)c3n2)cc1 [compound 26]",
    "DISCRETE LABEL": "Condition not met"
  },
  {
    "COMPOUND": "CCn1c(N)c(C(=O)NC)c(=O)c2ccc(-c3ccc(CC(=O)NC[C@H]4CCCN4CC(F)F)cn3)nc21 [compound 34]",
    "DISCRETE LABEL": "Condition not met"
  },
  {
    "COMPOUND": "CCn1c(N)c(C(=O)NC)c(=O)c2ccc(-c3ccc(CC(=O)NCCN4CCOCC4)cc3)nc21 [compound 18]",
    "DISCRETE LABEL": "Condition not met"
  },
  {
    "COMPOUND": "CCN1CC(F)(F)C[C@H]1CNC(=O)Cc1ccc(-c2ccc3c(=O)c(C(=O)NC)c(N)n(CC)c3n2)cc1 [compound 24]",
    "DISCRETE LABEL": "Condition not met"
  }
]

###

Structures can show the parent of a compound that is named as a salt.
melting point by entry:

[
  {
    "COMPOUND": "CCn1c(N)c(C(=O)NC)c(=O)c2ccc(-c3ccc(CC(=O)NCCCN4CCOCC4)cc3)nc21 (as salt: HCl)",
    "melting point (°C)": 196
  },
  {
    "COMPOUND": "CCN1CCCC1CNC(=O)Cc1ccc(-c2ccc3c(=O)c(C(=O)NC)c(N)n(CC(F)(F)F)c3n2)cc1 (stereo not shown)",
    "melting point (°C)": 300
  },
  {
    "COMPOUND": "CCN1CCCC1CNC(=O)Cc1ccc(-c2ccc3c(=O)c(C(=O)NC)c(N)n(CC)c3n2)cc1C (stereo not shown)",
    "melting point (°C)": 277
  },
  {
    "COMPOUND": "CCn1c(N)c(C(=O)NC)c(=O)c2ccc(-c3ccc(C(C)C(=O)Nc4ccccn4)cc3)nc21 (stereo not shown) (as salt: HCl)",
    "melting point (°C)": 188
  }
]

###

Target: fusion protein Tel/PDGF-R (PDGF-Rβ kinase domain) in HEK cells (Homo sapiens)
Construct: the transmembrane and intracellular part of the PDGF-Rβ receptor; N-terminal part of the Tel transcription factor (ETV6); expressed in transfected cells; host or cells: HEK cells (transient transfection); the other entry of the earlier key: ETV6 (P41212, Transcription factor ETV6)
Experiment: Ex vivo activity: plasma of orally treated mice tested on PDGF-R autophosphorylation in HEK Tel/PDGF-R cells (ELISA)
Set-up: species or system female Balb/c mice
Details: HEK293, mouse, po, 30 mg/kg po, plasma collected at 15 min; read-out: % inhibition of autophosphorylation of PDGFR tyrosine kinase in HEK cells
Experimental: Ex vivo activity of the compounds of the invention was measured. […] In order to detect the ex vivo activity of the products using the mouse plasmas, the HEK cells are transiently transfected beforehand with an expression vector coding for the fusion protein Tel/PDGF-R (fusion protein described previously). […] The results are expressed as a percentage of inhibition of the autophosphorylation. […]
Use 60% as the dividing line for inhibition at 30 mg/kg, with the line itself on the Y side and lower values as N.

[
  {
    "COMPOUND": "CCn1c(N)c(C(=O)NC)c(=O)c2ccc(-c3ccc(CC(=O)NCC4COCCN4C4CC4)cc3)nc21 (stereo not drawn) [compound 33]",
    "DISCRETE LABEL": "Y"
  },
  {
    "COMPOUND": "CCn1c(N)c(C(=O)NC)c(=O)c2ccc(-c3ccc(CC(=O)NC[C@H]4CCCN4CC(F)F)cc3)nc21 [compound 31]",
    "DISCRETE LABEL": "Y"
  },
  {
    "COMPOUND": "CCN1CC(F)(F)C[C@H]1CNC(=O)Cc1ccc(-c2ccc3c(=O)c(C(=O)NC)c(N)n(CC)c3n2)cc1 [compound 24]",
    "DISCRETE LABEL": "Y"
  },
  {
    "COMPOUND": "CCn1c(N)c(C(=O)NC)c(=O)c2ccc(-c3ccc(CC(=O)NCCN4CCOCC4)cc3)nc21 [compound 18]",
    "DISCRETE LABEL": "N"
  },
  {
    "COMPOUND": "CCN1C[C@H](F)C[C@H]1CNC(=O)Cc1ccc(-c2ccc3c(=O)c(C(=O)NC)c(N)n(CC)c3n2)cc1 [compound 26]",
    "DISCRETE LABEL": "N"
  },
  {
    "COMPOUND": "CCn1c(N)c(C(=O)NC)c(=O)c2ccc(-c3ccc(CC(=O)NC[C@H]4CCCN4CC(F)F)cn3)nc21 [compound 34]",
    "DISCRETE LABEL": "Y"
  }
]
